# Test system: IGROV1 ovarian
# assay_procedure: NCI-60 one-dose screen, 48 h
# assay_context: 10 µM unless noted
This is part of a sample that, as a whole, favours compounds with a hit. Of some 83,000 tested, about 20% had one in any assay. Active and inactive are the calls of the source. Rule for the calls: active = growth percent below 10; inactive = the rest.
Your response should consist of one outcome taken from class 1 for active, class 0 for inactive

## Input Assay result, entry `Cc1sc2c(c1C)c(=O)nc1c(-c3nc(-c4ccccc4)cs3)n[nH]n12` — outcome?
## Output class 0

## Input Assay result, entry `COc1ccc(F)c(F)c1C(=O)c1cnc(NC2CCN(S(C)(=O)=O)CC2)nc1N` — outcome?
## Output class 0

## Input Assay result, entry `COc1cc2cc(NCc3ccc(Cl)cc3)nc(C)c2cc1OC` — outcome?
## Output class 0

## Input Assay result, entry `O=C(NCCO)Nc1ccc(-c2nc(N3CCOCC3)c3cccn3n2)cc1` — outcome?
## Output class 1

## Input Assay result, entry `CCN1CCN(c2cc(C)nc(N(CCCNc3ccnc4cc(Cl)ccc34)Cc3cccs3)n2)CC1` — outcome?
## Output class 0

## Input Assay result, entry `CC(C)c1cc(CNc2nc(Nc3cc(C4CC4)[nH]n3)cc(N3CCN(C)CC3)n2)on1` — outcome?
## Output class 1

## Input Assay result, entry `Cn1cnc(-c2cc3nccc(Oc4ccc(NC(=S)NC(=O)Cc5ccccc5)cc4F)c3s2)c1` — outcome?
## Output class 0

## Input Assay result, entry `CC12O[C@H](C[C@@H](OC(=O)CCC(=O)O)[C@H]1O)n1c3ccccc3c3c4c(c5c6ccccc6n2c5c31)C(=O)NC4=O` — outcome?
## Output class 0

## Input Assay result, entry COc1ccc(-c2cc3c(C)nc(N)nc3n(C3CCC(OCCO)CC3)c2=O)cn1 (centres undefined) — outcome?
## Output class 1

## Input Assay result, entry `C[C@@H]1COCCN1c1cc(C2([S@](C)(=N)=O)CC2)nc(-c2ccnc3[nH]ccc23)n1` — outcome?
## Output class 0

## Input Assay result, entry `Cc1ccc(NC(=O)c2ccc(CN3CCN(C)CC3)cc2)cc1Nc1nc(-c2cccnc2)cs1` — outcome?
## Output class 0

## Input Assay result, entry CC1(O)CCC2CC3OC3(C)CCC3OC3(C)C(O)CC1C2(C)C (centres undefined) — outcome?
## Output class 0

## Input Assay result, entry `CCc1cc2c(c3ccc(C(=O)CBr)cc13)CCCC2` — outcome?
## Output class 0

## Input Assay result, entry `OCCNC(=S)Nc1ccc(-c2nc(N3C[C@H]4CC[C@@H](C3)O4)c3cccn3n2)cc1` — outcome?
## Output class 1

## Input Assay result, entry `CCCCOc1nc2cc(Cl)ccc2cc1/C=C/c1cc(/C=C/c2cc3ccc(Cl)cc3nc2OCCCC)n(-c2ccccc2)n1` — outcome?
## Output class 0

## Input Assay result, entry `Cc1ccc(Nc2nccc(N(C)c3ccc4c(C)n(C)nc4c3)n2)cc1S(N)(=O)=O` — outcome?
## Output class 1

## Input Assay result, entry `COc1ccc2c(CCCCC(c3ccccc3)c3ccccc3)c3[n+](cc2c1OC)CCc1cc2c(cc1-3)OCO2` — outcome?
## Output class 1

## Input Assay result, entry `CC(C)Nc1cc(-c2c[nH]c(C(=O)N[C@H](CO)c3cccc(Cl)c3)c2)c(Cl)cn1` — outcome?
## Output class 0

## Input Assay result, entry `Cc1ccc(-n2nc(C(C)(C)C)cc2NC(=O)NCc2cc(F)ccc2Oc2ccc3c(cnn3CCO)c2)cc1` — outcome?
## Output class 1
